System: morningglory
Test: Test C preemergence
Type: in vivo, Ipomoea coccinea
Conditions: preemergence, 62 g ai/ha; scale 0 to 100 (0 no effect, 100 complete control), 13 to 15 days
Morningglory plant response rating: recorded values

Illustrative cases are given below, each with its answer.
| COMPOUND | Morningglory plant response rating |
| --- | --- |
| CCCc1cc(C(=O)NC(C)C)nn1Cc1cc(C(F)(F)F)nn1C [Compound 201] | 100 |
| O=C(NC1CC1)c1cc(CCCl)n(Cc2ccnc(C(F)(F)F)c2)n1 [Compound 144] | 100 |
| CCc1cc(C(=O)NCC(F)(F)F)nn1Cc1cc(C(F)(F)F)nn1C [Compound 108] | 100 |

For reference, reported Morningglory plant response rating for CCc1cc(C(=O)NCC(F)(F)F)nn1Cc1nc(C(F)(F)F)nn1C [Compound 107] stands at 100

For reference, reported Morningglory plant response rating for CCCc1cc(C(=O)NC2CC2)nn1Cc1cc(C(F)(F)F)nn1C [Compound 202] stands at 100

For reference, reported Morningglory plant response rating for O=C(NCC(F)(F)F)c1cc(CCF)n(Cc2ccnc(C(F)(F)F)c2)n1 [Compound 175] stands at 100

For reference, reported Morningglory plant response rating for CCONC(=O)c1cc(CC)n(Cc2ccnc(OC(F)F)c2)n1 [Compound 131] stands at 100

====

Test system: johnsongrass
Assay: Test C preemergence
Format: in vivo, Sorghum halepense
Conditions: preemergence, 31 g ai/ha; visual rating, scale 0 to 100 (0 no effect, 100 complete control), 13 to 15 days
Text: […]
MEASUREMENT TYPE: Johnsongrass plant response rating
Give a plain numeric answer without units written out.

Illustrative cases are given below, each with its answer.
| COMPOUND STRING | MEASURED NUMBER |
| --- | --- |
| CCCc1cc(C(=O)NC2CC2)nn1Cc1cc(C(F)(F)F)nn1C | 50 |
| CCOc1cc(C(=O)NCC(F)(F)F)nn1Cc1cc(C(F)(F)F)nn1C | 25 |
| CCc1cc(-c2ccc(C(F)(F)F)cc2)nn1Cc1ccnc(C(F)(F)F)c1 | 15 |

johnsongrass Johnsongrass plant response rating of CCNC(=O)c1cc(CCF)n(Cc2ccnc(C(F)(F)F)c2)n1 is 0

====

Plant response rating, Rice: recorded values
Test system: rice
Test: Test C flooded paddy test
Format: in vivo, Oryza sativa
Details: Flood, 250 g ai/ha; scale 0 to 100
Give a plain numeric answer without units written out.

Illustrative cases are given below, each with its answer.
| MOLECULE | MEASURED NUMBER |
| --- | --- |
| CCCNC(=O)c1cc(CCC)n(Cc2cccc(OC(F)(F)F)c2)n1 [Compound 35] | 0 |
| CCc1cc(C(=O)NCC2CC2)nn1Cc1cccc(OC(F)(F)F)c1 [Compound 53] | 30 |
| CCCNC(=O)c1cc(CC)n(Cc2cccc(C(F)(F)F)c2)n1 [Compound 16] | 25 |
| CCCc1cc(C(=O)NC2CC2)nn1Cc1cccc(OC(F)(F)F)c1 [Compound 34] | 10 |
| CCCNC(=O)c1cc(CC)n(Cc2nc(C(F)(F)F)nn2C)n1 [Compound 109] | 35 |
| CCCCNC(=O)c1cc(CC)n(Cc2ccnc(C(F)(F)F)c2)n1 [Compound 141] | 20 |

For reference, reported Plant response rating, Rice for CCc1cc(C(=O)NOC(C)C)nn1Cc1cccc(OC(F)(F)F)c1 [Compound 70] stands at 50

====

System: wheat
Assay: Test C preemergence
Format: in vivo, Triticum aestivum
Settings: preemergence, 62 g ai/ha; scale 0 to 100 (0 no effect, 100 complete control), 13 to 15 days
Wheat plant response rating: recorded values
Give a plain numeric answer without units written out.

Illustrative cases are given below, each with its answer.
| COMPOUND STRING | Wheat plant response rating |
| --- | --- |
| O=C(NC1CC1)c1cc(CCF)n(Cc2ccnc(C(F)(F)F)c2)n1 | 0 |
| CCNC(=O)c1cc(CC)n(Cc2cc(C(F)(F)F)nn2C)n1 | 5 |
| CCCNC(=O)c1cc(CC)n(Cc2nc(C(F)(F)F)nn2C)n1 | 15 |

For reference, reported Wheat plant response rating for CCc1cc(C(=O)NCC(F)(F)F)nn1Cc1ccnc(Br)c1 stands at 0

For reference, reported Wheat plant response rating for CCCc1cc(C(=O)NC2CC2)nn1Cc1cc(C(F)(F)F)nn1C stands at 85

For reference, reported Wheat plant response rating for CCCc1cc(C(=O)NCC(F)(F)F)nn1Cc1ccnc(OC(F)F)c1 stands at 40

====

Plant response rating, Lambsquarters: recorded values
System: lambsquarters
Experiment: Test C postemergence
Format: in vivo, Chenopodium album
Conditions: postemergence, 250 g ai/ha; scale 0 to 100 (0 no effect, 100 complete control)
Description: […]
Give a plain numeric answer without units written out.

For reference, reported Plant response rating, Lambsquarters for CCc1cc(C(=O)NCC(F)(F)F)nn1Cc1ccnc(SC(F)(F)F)c1 stands at 80

For reference, reported Plant response rating, Lambsquarters for CCONC(=O)c1cc(CC)n(Cc2cccc(OC(F)(F)F)c2)n1 stands at 98

For reference, reported Plant response rating, Lambsquarters for CCc1cc(C(=O)NOC(C)C)nn1Cc1cccc(OC(F)(F)F)c1 stands at 98

For reference, reported Plant response rating, Lambsquarters for CCNC(=O)c1cc(CC)n(Cc2cc(C(F)(F)F)nn2C)n1 stands at 75

For reference, reported Plant response rating, Lambsquarters for Cc1cc(C(=O)NCC(F)(F)F)nn1Cc1ccnc(C(F)(F)F)c1 stands at 90

For reference, reported Plant response rating, Lambsquarters for CCCNC(=O)c1cc(CCF)n(Cc2ccnc(C(F)(F)F)c2)n1 stands at 85

====

Test system: barnyardgrass
Assay: Test B flood
Assay type: in vivo, Echinochloa crus-galli
Details: 250 g ai/ha, visual rating on 0 to 100 scale (0 no effect, 100 complete control), 13 to 15 days
Field 'label' (enum: True / False). Set to True when Plant response rating, Barnyardgrass is strictly under 20; else False.

Record excerpt, results attached:
| COMPOUND STRING | ANSWER LABEL |
| --- | --- |
| CCc1cc(C(=O)NCC(F)(F)F)nn1Cc1cc(C(F)(F)C(F)(F)F)nn1C | False |
| CCc1cc(C(=O)NC(C)C)nn1Cc1cc(C(F)(F)F)nn1CC | True |
| O=C(NC1CC1)c1cc(CCF)n(Cc2ccnc(C(F)(F)F)c2)n1 | False |
| CCOc1cc(C(=O)NCC(F)(F)F)nn1Cc1cc(C(F)(F)F)nn1C | False |
| CCc1cc(C(=O)NCC(F)(F)F)nn1Cc1ccnc(SC(F)(F)F)c1 | False |

Does the reported Plant response rating, Barnyardgrass of O=C(NC1CC1)c1cc(I)n(Cc2cccc(C(F)(F)F)c2)n1 stay below 20?
True

Does the reported Plant response rating, Barnyardgrass of CCCc1cc(C(=O)NC2CC2)nn1Cc1ccnc(OC(F)F)c1 stay below 20?
False

Does the reported Plant response rating, Barnyardgrass of CCOc1cc(C(=O)NCC(F)(F)F)nn1Cc1ccnc(OC(F)F)c1 stay below 20?
False

Does the reported Plant response rating, Barnyardgrass of CCCCNC(=O)c1cc(I)n(Cc2cccc(C(F)(F)F)c2)n1 stay below 20?
True

====

Tested on: foxtail, giant
Assay: Test A postemergence
Format: in vivo, Setaria faberii
Details: Postemergence, 1000 g ai/ha; visual rating after approx. 10 days, 0 to 100 scale (0 no effect, 100 complete control)
MEASUREMENT TYPE: Foxtail, Giant plant response rating
Give a plain numeric answer without units written out.

Illustrative cases are given below, each with its answer.
| COMPOUND STRING | TEST TARGET | Foxtail, Giant plant response rating |
| --- | --- | --- |
| Cc1cc(C(=O)NCC(F)(F)F)nn1Cc1ccnc(C(F)(F)F)c1 | foxtail, giant | 90 |
| CCNC(=O)c1cc(C2CC2)n(Cc2cccc(OC(F)(F)F)c2)n1 | foxtail, giant | 10 |
| C#CCNC(=O)c1cc(CC)n(Cc2cccc(OC(F)(F)F)c2)n1 | foxtail, giant | 10 |
| CCc1cc(C(=O)N(C)CC)nn1Cc1cccc(C(F)(F)F)c1 | foxtail, giant | 30 |

foxtail, giant Foxtail, Giant plant response rating of CCCc1cc(C(=O)NCC(F)(F)F)nn1Cc1cccc(OC(F)(F)F)c1 is 50

foxtail, giant Foxtail, Giant plant response rating of CCc1cc(C(=O)N(C)OC)nn1Cc1cccc(C(F)(F)F)c1 is 40

foxtail, giant Foxtail, Giant plant response rating of CCc1cc(C(=O)NC(C)(C)C)nn1Cc1cccc(C(F)(F)F)c1 is 30

====

Plant response rating, Galium: recorded values
Tested on: galium
Experiment: Test C postemergence
Type: in vivo, Galium aparine
Details: postemergence, 250 g ai/ha; scale 0 to 100 (0 no effect, 100 complete control)

Illustrative cases are given below, each with its answer.
| COMPOUND | RESULT |
| --- | --- |
| CCc1cc(C(=O)NC2CC2)nn1Cc1ccnc(Br)c1 [Compound 220] | 80 |
| CCc1cc(C(=O)NCC(F)(F)F)nn1Cc1ccnc(Br)c1 [Compound 224] | 90 |

Okay, next one:
For reference, reported Plant response rating, Galium for CCCc1cc(C(=O)NC(C)C)nn1Cc1ccnc(C(F)(F)F)c1 [Compound 186] stands at 100

Where these numbers come from: patent US20150105252A1
